# protocol: Pharmacokinetic study in rats
# Type: in vivo, SD rats
# condition parameters: male, SD, rat, plasma, po, 5 mg/kg p.o
attribute measured: AUC(0-t) (ng·h/mL)
The response must be a number in ng·h/mL with no trailing unit.

Prompt line: Entry N[C@@H]1CCCc2cccc(Cn3c(=S)[nH]c(=O)c4[nH]ccc43)c21 (single isomer, unassigned) : reported AUC(0-t) = ?
Response line: 1220

Prompt line: What AUC(0-t) value was documented for this compound, N[C@@H]1CCOc2cccc(Cn3c(=S)[nH]c(=O)c4[nH]ccc43)c21 (single isomer, unassigned) ?
Response line: 3630

Prompt line: Query (compound): NC1CCOc2cccc(Cn3c(=S)[nH]c(=O)c4[nH]ccc43)c21 (stereo not drawn) ; field requested: AUC(0-t)
Response line: 2010

* * *

# protocol: Pharmacokinetic study in rats
# Format: in vivo, SD rats
# condition parameters: male, SD, rat, plasma, iv, 1 mg/kg i.v, read-out: Cmax
attribute measured: Cmax (ng/mL)
Dear colleague, please return just the value in ng/mL, with no unit written.

Prompt line: Which Cmax is listed for NC1CCOc2cccc(Cn3c(=S)[nH]c(=O)c4[nH]ccc43)c21 (stereo not shown) ?
Response line: 620

* * *

For each of the compounds below, state its pIC50.
As a rule, pIC50 stands for the negative log10 of the concentration, concentration in M.

Prompt line: Please provide the recorded pIC50 for NC1COc2cccc(Cn3c(=S)[nH]c(=O)c4[nH]ccc43)c21 (stereo not drawn) , tested on human myeloperoxidase (hMPO) (Homo sapiens, UniProt P05164).
Sequence (P05164 279-745 limits assumed): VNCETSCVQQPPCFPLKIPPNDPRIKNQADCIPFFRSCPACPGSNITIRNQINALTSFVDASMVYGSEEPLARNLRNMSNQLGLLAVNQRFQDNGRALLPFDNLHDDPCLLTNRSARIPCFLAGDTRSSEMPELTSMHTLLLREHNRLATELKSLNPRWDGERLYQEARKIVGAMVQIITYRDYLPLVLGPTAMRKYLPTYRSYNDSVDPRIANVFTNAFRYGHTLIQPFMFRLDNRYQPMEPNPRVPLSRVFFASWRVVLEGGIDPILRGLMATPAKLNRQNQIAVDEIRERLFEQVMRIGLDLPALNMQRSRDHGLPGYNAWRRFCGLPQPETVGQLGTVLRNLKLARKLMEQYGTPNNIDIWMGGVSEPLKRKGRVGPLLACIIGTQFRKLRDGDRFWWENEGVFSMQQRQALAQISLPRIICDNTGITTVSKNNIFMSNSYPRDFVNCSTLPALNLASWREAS
Sequence (P05164 165-273 limits assumed): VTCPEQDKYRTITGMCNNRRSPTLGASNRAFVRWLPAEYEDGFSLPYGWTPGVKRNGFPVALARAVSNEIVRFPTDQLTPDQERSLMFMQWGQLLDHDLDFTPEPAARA
Response line: 7.51

Prompt line: # get_value(readout= pIC50, system= human myeloperoxidase (hMPO) (Homo sapiens, UniProt P05164)) for COc1c[nH]c2c(=O)[nH]c(=S)n(Cc3cccc4c3C(N)CCO4)c12 (stereo not drawn)
Response line: 7.63

Prompt line: Form entry - test system: human myeloperoxidase (hMPO) (Homo sapiens, UniProt P05164); read-out: pIC50; compound: NC1COc2c(Cl)ccc(Cn3c(=S)[nH]c(=O)c4[nH]ccc43)c21 (stereo not drawn)
Response line: 7.48

Prompt line: Entry NC1CCOc2c(Cl)ccc(Cn3c(=S)[nH]c(=O)c4[nH]ccc43)c21 (stereo not drawn) , system human myeloperoxidase (hMPO) (Homo sapiens, UniProt P05164): what pIC50 was measured?
Response line: 7.79

Prompt line: Reported pIC50 for human myeloperoxidase (hMPO) (Homo sapiens, UniProt P05164), given N[C@@H]1CCCOc2cccc(Cn3c(=S)[nH]c(=O)c4[nH]ccc43)c21 (single isomer, unassigned) [Compound 15A] ?
Response line: 8.00

Prompt line: Which measured pIC50 belongs to NC1CCCc2cccc(Cn3c(=S)[nH]c(=O)c4[nH]ccc43)c21 (stereo not drawn) , tested on human myeloperoxidase (hMPO) (Homo sapiens, UniProt P05164)?
Response line: 7.97

* * *

# protocol: Pharmacokinetic study in rats
# Format: in vivo, SD rats
# condition parameters: male, SD, rat, plasma, po, 5 mg/kg p.o, read-out: Cmax
attribute measured: Cmax (ng/mL)
Give the value, in units of ng/mL, as a plain number.

Prompt line: Give the measured Cmax of NC1CCOc2cccc(Cn3c(=S)[nH]c(=O)c4[nH]ccc43)c21 (stereo not shown) .
Response line: 305

* * *

Give IC50 at 10 min for every item shown.
# assay target: CYP3A (Homo sapiens)
# Sequence (P08684 2-503): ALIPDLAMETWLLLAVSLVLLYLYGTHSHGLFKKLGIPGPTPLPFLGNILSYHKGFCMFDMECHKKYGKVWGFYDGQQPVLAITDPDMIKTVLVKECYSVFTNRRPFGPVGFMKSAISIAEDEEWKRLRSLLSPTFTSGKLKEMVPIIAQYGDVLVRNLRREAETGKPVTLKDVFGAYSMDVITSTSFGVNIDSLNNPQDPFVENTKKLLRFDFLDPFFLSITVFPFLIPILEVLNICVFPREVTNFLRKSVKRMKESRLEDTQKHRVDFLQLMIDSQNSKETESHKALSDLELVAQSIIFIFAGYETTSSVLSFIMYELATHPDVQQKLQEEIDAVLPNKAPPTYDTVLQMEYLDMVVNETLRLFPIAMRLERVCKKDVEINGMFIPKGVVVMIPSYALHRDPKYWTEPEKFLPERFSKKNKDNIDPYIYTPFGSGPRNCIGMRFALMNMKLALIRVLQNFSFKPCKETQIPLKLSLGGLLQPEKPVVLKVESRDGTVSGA
# protocol: Enzyme inhibition test, CYP3A in human liver microsomes
# Format: in vitro ADME
# condition parameters: pH 7.4, probe midazolam (1 μM), CYP3A (Midazolam), 0.2 mg/mL human liver microsomes

Prompt line: Would you kindly share the measured IC50 at 10 min for N[C@@H]1CCCc2cccc(Cn3c(=S)[nH]c(=O)c4[nH]ccc43)c21 (single isomer, unassigned) ?
Response line: > 50 µM

Prompt line: Need IC50 at 10 min of N[C@@H]1CCOc2cccc(Cn3c(=S)[nH]c(=O)c4[nH]ccc43)c21 (single isomer, unassigned) , thanks.
Response line: > 50 µM
